Values were extracted from the supplement of paper PMC10567573.

B1: ZNF24 (parent)
chain: THTKEQILELVVLEQFVAILPKEL

variants of: B1; test: protein stability index of a GFP-peptide fusion (GPS, HEK-293T) (PSI 1-6); higher = more stable; details: c terminus: a fixed tail appended;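 note: lentivirally expressed fusions sorted by FACS into six bins by GFP to DsRed ratio, PSI derived from sequencing read proportions per bin multiplied by bin number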
quantityKind: protein stability index
API note: the answer field is a bare number with no unit suffix.

Solved entries:
### Prompt Please look up its protein stability index: `THTKEQILELVVLEQFVAILPQEL`
### Response 2.7

### Prompt Please look up its protein stability index: `THTKEQILELVVLNQFVAILPKEL`
### Response 3.68

### Prompt Please look up its protein stability index: `THLKEQILELVVLEQFVAILPKEL`
### Response 3.11

### Prompt Please look up its protein stability index: `THTKEQILELVLLEQFVAILPKEL`
### Response 2.12

### Prompt Please look up its protein stability index: `THTKEQILELVVHEQFVAILPKEL`
### Response 1.76

More entries:
### Prompt Please look up its protein stability index: `THTKEQILELVVLTQFVAILPKEL`
### Response 2.64

### Prompt Please look up its protein stability index: `THTKEQILELVVLEQFVAILPKGL`
### Response 3.15

### Prompt Please look up its protein stability index: `THTKEQQLELVVLEQFVAILPKEL`
### Response 1.89

### Prompt Please look up its protein stability index: `THTKAQILELVVLEQFVAILPKEL`
### Response 2

### Prompt Please look up its protein stability index: `THTKEQILELVVLEQFVAILPGEL`
### Response 4.16

### Prompt Please look up its protein stability index: `THTKEQILELVVLEQFQAILPKEL`
### Response 2.02

### Prompt Please look up its protein stability index: `THYKEQILELVVLEQFVAILPKEL`
### Response 3.59

### Prompt Please look up its protein stability index: `THTKEQILELVVPEQFVAILPKEL`
### Response 2.42

### Prompt Please look up its protein stability index: `THTKEQLLELVVLEQFVAILPKEL`
### Response 2.16

### Prompt Please look up its protein stability index: `THTKEDILELVVLEQFVAILPKEL`
### Response 1.55

### Prompt Please look up its protein stability index: `THTKEQILELVVLEQFVAISPKEL`
### Response 2.33

### Prompt Please look up its protein stability index: `THTKEQIMELVVLEQFVAILPKEL`
### Response 2.41

### Prompt Please look up its protein stability index: `TNTKEQILELVVLEQFVAILPKEL`
### Response 2.59

### Prompt Please look up its protein stability index: `THTKEQILELVVLEQFVAILPKCL`
### Response 3.17
